All values here come from patent US20210238170A1.

Target: human SGLT2 (Homo sapiens, UniProt P31639)
Construct: expressed in transfected cells
Sequence (P31639 whole entry): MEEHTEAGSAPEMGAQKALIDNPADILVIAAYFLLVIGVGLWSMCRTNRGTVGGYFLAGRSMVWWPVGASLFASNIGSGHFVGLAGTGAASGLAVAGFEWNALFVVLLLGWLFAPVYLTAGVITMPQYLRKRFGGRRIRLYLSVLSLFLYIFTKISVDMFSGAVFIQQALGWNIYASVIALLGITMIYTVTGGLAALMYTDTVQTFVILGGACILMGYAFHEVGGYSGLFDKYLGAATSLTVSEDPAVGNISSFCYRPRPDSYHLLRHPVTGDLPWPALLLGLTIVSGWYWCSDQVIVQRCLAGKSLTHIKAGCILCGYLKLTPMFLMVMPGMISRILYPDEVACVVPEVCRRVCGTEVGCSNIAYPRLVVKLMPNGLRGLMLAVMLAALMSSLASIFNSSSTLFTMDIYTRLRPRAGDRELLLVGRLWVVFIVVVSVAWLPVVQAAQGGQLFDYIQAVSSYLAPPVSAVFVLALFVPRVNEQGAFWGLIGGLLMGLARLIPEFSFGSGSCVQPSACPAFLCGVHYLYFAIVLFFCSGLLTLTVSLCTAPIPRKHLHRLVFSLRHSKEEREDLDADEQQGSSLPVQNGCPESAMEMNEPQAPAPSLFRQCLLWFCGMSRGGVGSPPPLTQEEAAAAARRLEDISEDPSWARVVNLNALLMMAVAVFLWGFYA
Assay: SGLT2 in vitro assay: Na-dependent 14C-AMG uptake in CHO-K1 cells stably expressing human SGLT2
Format: cell-based
Conditions: @ 0.3 μM; CHO-K1 cells stably expressing human SGLT2; 14C-AMG uptake
REPORTED PROPERTY: SGLT2 % Inh @ 0.3 μM (%)

COMPOUND	SGLT2 % Inh @ 0.3 μM / %
CCc1ccc(Cc2cc([C@@H]3O[C@H](CO)C(F)(F)[C@H](O)[C@H]3O)c(OC)cc2CC)cc1 [Compound 130]	83.7
COc1cc(Cl)c(Cc2cc3c(s2)CCN(C(C)=O)C3)cc1[C@@H]1O[C@H](CO)C(F)(F)[C@H](O)[C@H]1O [Compound 73]	55.0
COc1c([C@@H]2O[C@H](CO)C(F)(F)[C@H](O)[C@H]2O)cc(Cc2ccc(C3CC3)cc2)c2c1CCO2 [Compound 183]	87.4
COc1c([C@@H]2O[C@H](CO)C(F)(F)[C@H](O)[C@H]2O)cc(Cc2ccc(OCF)cc2)c2c1CCO2 [Compound 184]	73.2
COc1cc(OC)c([C@@H]2O[C@H](CO)C(F)(F)[C@H](O)[C@H]2O)cc1Cc1ccc(OC(F)(F)F)cc1 [Compound 121]	63.6
CN(C)c1ccc(Cc2cc([C@@H]3O[C@H](CO)C(F)(F)[C@H](O)[C@H]3O)cc3c2OCC3)cc1 [Compound 179]	62.1
COc1cc(C)c(Cc2cc3cc(F)ccc3s2)cc1[C@@H]1O[C@H](CO)C(F)(F)[C@H](O)[C@H]1O [Compound 53]	87.1
COc1cc(C)c(Cc2cc3c(s2)CCN(C(=O)N2CCCC2)C3)cc1[C@@H]1O[C@H](CO)C(F)(F)[C@H](O)[C@H]1O [Compound 78]	71.5
CCOc1ccc(Cc2cc([C@@H]3O[C@H](CO)C(F)(F)[C@H](O)[C@H]3O)c(OC)cc2C)cc1 [Compound 49]	79.2
N#CCOc1cc(Cl)c(Cc2cc3ccccc3s2)cc1[C@@H]1O[C@H](CO)C(F)(F)[C@H](O)[C@H]1O [Compound 51]	82.0
COc1ccc(Cc2cc([C@@H]3O[C@H](CO)C(F)(F)[C@H](O)[C@H]3O)c(OC)cc2Cl)cc1 [Compound 87]	76.0
OC[C@H]1O[C@@H](c2cc(Cc3ccc([C@@H]4CCOC4)cc3)c(Cl)cc2O)[C@H](O)[C@@H](O)C1(F)F [Compound 46]	89.0
Cc1cc(OC(C)C)c([C@@H]2O[C@H](CO)C(F)(F)[C@H](O)[C@H]2O)cc1Cc1cc2ccccc2s1 [Compound 42]	74.3
OC[C@H]1O[C@@H](c2cc(Cc3ccc4c(c3)OCCO4)c(Cl)c3c2CCO3)[C@H](O)[C@@H](O)C1(F)F [Compound 188]	60.1
CN(C)c1ccc(Cc2cc([C@@H]3O[C@H](CO)C(F)(F)[C@H](O)[C@H]3O)c(O)cc2C#N)cc1 [Compound 152]	84.5
OC[C@H]1O[C@@H](c2cc3c(c(Cc4ccc(C5CC5)cc4)c2)OCC3)[C@H](O)[C@@H](O)C1(F)F [Compound 174]	82.9
CCc1cc(O)c([C@@H]2O[C@H](CO)C(F)(F)[C@H](O)[C@H]2O)cc1Cc1ccc(OC(F)(F)F)cc1 [Compound 104]	82.6
CCc1ccc(Cc2cc([C@@H]3O[C@H](CO)C(F)(F)[C@H](O)[C@H]3O)cc3c2OCC3)cc1 [Compound 58]	81.9
COc1ccc(Cc2cc([C@@H]3O[C@H](CO)C(F)(F)[C@H](O)[C@H]3O)c(OC)cc2OC)cc1 [Compound 92]	81.9
COc1cc(OC)c([C@@H]2O[C@H](CO)C(F)(F)[C@H](O)[C@H]2O)cc1Cc1ccc(C2CC2)cc1 [Compound 144]	75.0

---

Target: human SGLT2 (Homo sapiens, UniProt P31639)
Construct: expressed in transfected cells
Assay: SGLT2 in vitro assay: Na-dependent 14C-AMG uptake in CHO-K1 cells stably expressing human SGLT2
Assay type: cell-based
Settings: CHO-K1 cells stably expressing human SGLT2; 14C-AMG uptake; compounds of formula (I) where R0 is fluoro
pIC50: −log10 of the molar value.
REPORTED PROPERTY: pIC50

P: OC[C@H]1O[C@@H](c2cc(Cc3ccc(C4CC4)cc3)c(Cl)cc2O)[C@H](O)[C@@H](O)C1(F)F
Q: CCc1ccc(Cc2cc([C@@H]3O[C@H](CO)C(F)(F)[C@H](O)[C@H]3O)c(O)cc2CC)cc1
R: OC[C@H]1O[C@@H](c2cc(Cc3ccc4c(c3)OCCO4)c3c(c2O)OCC3)[C@H](O)[C@@H](O)C1(F)F
stdin: Order the records so the highest pIC50 appears first and the lowest last. Return value: ordered labels per request.
stdout: P, Q, R

---

Molecular target: human SGLT1 (Homo sapiens, UniProt P13866)
Construct: expressed in transfected cells
Sequence (P13866 whole entry): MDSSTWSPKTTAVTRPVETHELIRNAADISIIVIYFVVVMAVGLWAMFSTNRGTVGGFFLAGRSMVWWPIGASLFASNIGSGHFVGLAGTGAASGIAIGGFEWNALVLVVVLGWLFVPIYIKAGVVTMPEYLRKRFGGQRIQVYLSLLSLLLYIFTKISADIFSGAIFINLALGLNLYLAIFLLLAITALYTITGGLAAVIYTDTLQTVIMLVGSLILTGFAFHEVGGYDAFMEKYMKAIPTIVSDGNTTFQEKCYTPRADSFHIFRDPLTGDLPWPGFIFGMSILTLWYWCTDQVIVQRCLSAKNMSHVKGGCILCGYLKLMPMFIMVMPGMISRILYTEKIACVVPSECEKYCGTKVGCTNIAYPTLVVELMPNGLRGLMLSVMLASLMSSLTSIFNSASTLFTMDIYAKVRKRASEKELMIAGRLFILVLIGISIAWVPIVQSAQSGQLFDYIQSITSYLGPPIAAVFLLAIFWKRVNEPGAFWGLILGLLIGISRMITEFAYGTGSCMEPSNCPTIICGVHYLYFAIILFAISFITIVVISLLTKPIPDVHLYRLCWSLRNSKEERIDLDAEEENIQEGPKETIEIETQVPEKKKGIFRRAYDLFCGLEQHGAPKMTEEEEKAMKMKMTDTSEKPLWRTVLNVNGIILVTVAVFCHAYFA
Experiment: SGLT1 in vitro assay: Na-dependent 14C-AMG uptake in CHO-K1 cells stably expressing human SGLT1
Assay type: cell-based
Details: CHO-K1 cells stably expressing human SGLT1; 14C-AMG uptake; compounds of formula (I) where R0 is fluoro
REPORTED PROPERTY: IC50 (nM)

Worked set:
SMILES CODE	ASSAYED TARGET	IC50, nM
CCc1cc(O)c([C@@H]2O[C@H](CO)C(F)(F)[C@H](O)[C@H]2O)cc1Cc1ccc(C2CC2)cc1	human SGLT1 (Homo sapiens, UniProt P13866)	72
Cc1cc(O)c([C@@H]2O[C@H](CO)C(F)(F)[C@H](O)[C@H]2O)cc1Cc1ccc2c(c1)OCCO2	human SGLT1 (Homo sapiens, UniProt P13866)	65
[2H]C([2H])(c1ccc2c(c1)OCCO2)c1cc([C@@H]2O[C@H](CO)C(F)(F)[C@H](O)[C@H]2O)ccc1CC	human SGLT1 (Homo sapiens, UniProt P13866)	779
CCOc1ccc(Cc2cc([C@@H]3O[C@H](CO)C(F)(F)[C@H](O)[C@H]3O)c(O)cc2C)cc1	human SGLT1 (Homo sapiens, UniProt P13866)	250
OC[C@H]1O[C@@H](c2cc(Cc3ccc(C4CC4)cc3)c(C3CC3)cc2O)[C@H](O)[C@@H](O)C1(F)F	human SGLT1 (Homo sapiens, UniProt P13866)	95
COc1cc(O)c([C@@H]2O[C@H](CO)C(F)(F)[C@H](O)[C@H]2O)cc1Cc1ccc2c(c1)CCCO2	human SGLT1 (Homo sapiens, UniProt P13866)	96

I: COc1cc(Cl)c(Cc2ccc3c(c2)OCC3)cc1[C@@H]1O[C@H](CO)C(F)(F)[C@H](O)[C@H]1O
II: CCc1cc(OC)c([C@@H]2O[C@H](CO)C(F)(F)[C@H](O)[C@H]2O)cc1Cc1ccc(C2CC2)cc1
stdin: Smaller IC50 value? Options are I and II Please reply using the label of the selected record.
stdout: I
(I: 326 nM, II: 644 nM)

1: Cc1cc(O)c([C@@H]2O[C@H](CO)C(F)(F)[C@H](O)[C@H]2O)cc1Cc1cc2ccccc2s1
2: COc1cc(O)c([C@@H]2O[C@H](CO)C(F)(F)[C@H](O)[C@H]2O)cc1Cc1ccc2c(c1)CCO2
stdin: API: POST /compare with 1 and 2 ; response names the item with higher IC50. Please reply using the label of the selected record.
stdout: 2

1: OC[C@H]1O[C@@H](c2cc(Cc3ccc4c(c3)OCCO4)c(Cl)cc2O)[C@H](O)[C@@H](O)C1(F)F
2: Cc1cc(O)c([C@@H]2O[C@H](CO)C(F)(F)[C@H](O)[C@H]2O)cc1Cc1ccc(C2CC2)cc1
3: OC[C@H]1O[C@@H](c2cc(Cc3ccc4c(c3)SCCO4)c(Cl)c3c2OCC3)[C@H](O)[C@@H](O)C1(F)F
4: Cc1c(Cc2cc3ccccc3s2)cc([C@@H]2O[C@H](CO)C(F)(F)[C@H](O)[C@H]2O)c(O)c1C
stdin: Rank the 4 molecules: largest IC50 first, smallest last. Return value: ordered labels per request.
stdout: 3, 2, 4, 1

a: CCc1cc(O)c([C@@H]2O[C@H](CO)C(F)(F)[C@H](O)[C@H]2O)cc1Cc1ccc(OCF)cc1
b: Cc1cnc(C(=O)N2CCc3sc(Cc4cc([C@@H]5O[C@H](CO)C(F)(F)[C@H](O)[C@H]5O)c(O)cc4C)cc3C2)s1
c: CCOc1ccc(Cc2cc([C@@H]3O[C@H](CO)C(F)(F)[C@H](O)[C@H]3O)c(O)cc2Cl)cc1
stdin: Rank the 3 molecules: largest IC50 first, smallest last. Return value: ordered labels per request.
stdout: b, c, a

---

Biological target: human SGLT2 (Homo sapiens)
Construct: expressed in transfected cells
Assay: SGLT2 in vitro assay: Na-dependent 14C-AMG uptake in CHO-K1 cells stably expressing human SGLT2
Assay type: cell-based
Conditions: @ 0.3 μM; CHO-K1 cells stably expressing human SGLT2; 14C-AMG uptake
REPORTED PROPERTY: SGLT2 % Inh @ 0.3 μM (%)

SMILES CODE	ASSAYED TARGET	RECORDED RESULT
COc1cc(O)c([C@@H]2O[C@H](CO)C(F)(F)[C@H](O)[C@H]2O)cc1Cc1ccc(OC(F)(F)F)cc1	human SGLT2 (Homo sapiens)	79.0
COc1c(Cc2ccc3c(c2)CCCO3)cc([C@@H]2O[C@H](CO)C(F)(F)[C@H](O)[C@H]2O)c2c1CCO2	human SGLT2 (Homo sapiens)	80.4
COc1cc(Cl)c(Cc2ccc(Cl)s2)cc1[C@@H]1O[C@H](CO)C(F)(F)[C@H](O)[C@H]1O	human SGLT2 (Homo sapiens)	79.9
OC[C@H]1O[C@@H](c2cc(Cc3ccc4c(c3)CCO4)c(Cl)c3c2OCC3)[C@H](O)[C@@H](O)C1(F)F	human SGLT2 (Homo sapiens)	80.6
COc1cc(C#N)c(Cc2ccc(C3CC3)cc2)cc1[C@@H]1O[C@H](CO)C(F)(F)[C@H](O)[C@H]1O	human SGLT2 (Homo sapiens)	78.9
